- Test system: MCF10A
- method: cells
- Format: cell-based
- assaySetup: Homo sapiens, MCF-10A, read-out: IC50, cell viability
parameter: pIC50
pIC50 here is simply -log10 of the concentration when that concentration is written in mol/L.

Please report the recorded pIC50 for CC(C)=C[C@H]1C[C@H](C)[C@]2(CC[C@]3(C)C[C@H]4[C@H](C(=O)C[C@@]4(C)O)/C(C=O)=C\C[C@H]32)O1 [OpA, ophiobolin A] . 6.70
